// % Blockade 50 µM lookup, one value per entry
target-desc: rat TRPM8 channel (Rattus norvegicus, UniProt Q8R455)
Construct: expressed in transfected cells; host or cells: HEK293 (stably transfected)
Sequence (Q8R455 whole entry): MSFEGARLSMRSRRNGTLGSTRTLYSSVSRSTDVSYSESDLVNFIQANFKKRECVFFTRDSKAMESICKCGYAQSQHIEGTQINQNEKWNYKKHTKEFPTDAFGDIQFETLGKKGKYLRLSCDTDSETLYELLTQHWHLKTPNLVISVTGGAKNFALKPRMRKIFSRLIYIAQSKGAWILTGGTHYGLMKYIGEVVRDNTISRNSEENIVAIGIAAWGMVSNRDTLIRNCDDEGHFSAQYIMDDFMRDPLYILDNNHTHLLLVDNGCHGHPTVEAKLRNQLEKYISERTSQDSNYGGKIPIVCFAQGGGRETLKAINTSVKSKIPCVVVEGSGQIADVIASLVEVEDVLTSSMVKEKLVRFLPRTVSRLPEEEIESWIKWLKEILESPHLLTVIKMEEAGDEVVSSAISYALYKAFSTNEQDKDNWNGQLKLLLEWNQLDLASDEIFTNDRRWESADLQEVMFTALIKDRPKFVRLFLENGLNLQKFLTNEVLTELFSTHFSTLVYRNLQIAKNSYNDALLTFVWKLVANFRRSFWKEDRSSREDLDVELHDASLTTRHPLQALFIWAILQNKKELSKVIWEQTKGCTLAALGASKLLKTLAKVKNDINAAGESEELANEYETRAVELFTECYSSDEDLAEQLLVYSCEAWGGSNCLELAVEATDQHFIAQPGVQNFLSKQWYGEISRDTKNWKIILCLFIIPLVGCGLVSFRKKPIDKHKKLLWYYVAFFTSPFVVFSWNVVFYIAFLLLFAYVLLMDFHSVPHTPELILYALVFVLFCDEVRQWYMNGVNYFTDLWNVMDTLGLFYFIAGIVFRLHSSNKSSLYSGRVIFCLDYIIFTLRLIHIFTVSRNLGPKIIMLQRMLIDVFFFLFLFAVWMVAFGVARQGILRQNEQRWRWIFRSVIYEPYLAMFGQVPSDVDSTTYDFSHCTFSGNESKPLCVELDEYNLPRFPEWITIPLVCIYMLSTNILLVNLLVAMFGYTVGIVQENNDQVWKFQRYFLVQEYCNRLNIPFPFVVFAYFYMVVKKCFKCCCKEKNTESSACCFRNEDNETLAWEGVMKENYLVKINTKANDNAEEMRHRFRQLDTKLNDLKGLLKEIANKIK
measurement-notes: Ca2+ microfluorometry, menthol-induced Ca2+ influx in HEK293 cells expressing rat TRPM8
Format: cell-based
condition-details: 50 µM compound; 100 µM menthol; HEK-rTRPM8
Give just the number in %; leave the unit off.

CC1C(=O)N(C[C@H](Cc2ccccc2)NC(=O)OCc2ccccc2)[C@@]1(Cc1ccccc1)C(=O)OCc1ccccc1 (stereo partly shown) [Compound 25ab]: 89.2
O=C(OCc1ccccc1)C(Cc1ccccc1)N1C[C@H](Cc2ccccc2)N(C(=O)OCc2ccccc2)CC1=O (stereo partly shown) [Compound 13ab]: 102.1
O=C(N[C@H](Cc1ccccc1)CN1C(=O)CC1(Cc1ccccc1)C(=O)OCc1ccccc1)OCc1ccccc1 (stereo partly shown) [Compound 14ab]: 103
CC(C(=O)OCc1ccccc1)N1CC(Cc2ccccc2)N(C(=O)OCc2ccccc2)CC1=O (stereo not shown) [Compound 38ab]: 105.5
C[C@@H]1C(=O)N(C[C@H](Cc2ccccc2)NC(=O)OCc2ccccc2)[C@]1(Cc1ccccc1)C(=O)OCc1ccccc1 [Compound 24a]: 110.7

## Task Using known records, supply % Blockade 50 µM for CC1C(=O)N(C[C@@H](Cc2ccccc2)NC(=O)OCc2ccccc2)[C@@]1(Cc1ccccc1)C(=O)OCc1ccccc1 (stereo partly shown) [Compound 31ab]
## Result 105.0

## Task Using known records, supply % Blockade 50 µM for O=C(N[C@@H](Cc1ccccc1)CN1C(=O)CC1(Cc1ccccc1)C(=O)OCc1ccccc1)OCc1ccccc1 (stereo partly shown) [Compound 12ab]
## Result 100.0

## Task Using known records, supply % Blockade 50 µM for O=C(OCc1ccccc1)C(Cc1ccccc1)N1C[C@@H](Cc2ccccc2)N(C(=O)OCc2ccccc2)CC1=O (stereo partly shown) [Compound 15ab]
## Result 106

## Task Using known records, supply % Blockade 50 µM for C[C@H]1C(=O)N(C(Cc2ccccc2)C(=O)OCc2ccccc2)C[C@@H](Cc2ccccc2)N1C(=O)OCc1ccccc1 (stereo partly shown) [Compound 32ab]
## Result 115.1

## Task Using known records, supply % Blockade 50 µM for C[C@@H]1C(=O)N(C(Cc2ccccc2)C(=O)OCc2ccccc2)C[C@@H](Cc2ccccc2)N1C(=O)OCc1ccccc1 (stereo partly shown) [Compound 30ab]
## Result 101.2

## Task Using known records, supply % Blockade 50 µM for C[C@@H]1C(=O)N(C[C@@H](Cc2ccccc2)NC(=O)OCc2ccccc2)[C@]1(C)C(=O)OCc1ccccc1 [Compound 39a]
## Result 100.4

## Task Using known records, supply % Blockade 50 µM for COC(=O)C(Cc1ccccc1)N1C[C@H](Cc2ccccc2)N(C(=O)OCc2ccccc2)CC1=O (stereo partly shown) [Compound 20ab]
## Result 61.0

## Task Using known records, supply % Blockade 50 µM for C[C@H]1C(=O)N(C(Cc2ccccc2)C(=O)OCc2ccccc2)C[C@H](Cc2ccccc2)N1C(=O)OCc1ccccc1 (stereo partly shown) [Compound 26ab]
## Result 102.4

## Task Using known records, supply % Blockade 50 µM for CC(C(=O)OCc1ccccc1)N1C[C@@H](Cc2ccccc2)N(C(=O)OCc2ccccc2)[C@H](C)C1=O (stereo partly shown) [Compound 40ab]
## Result 107.9

## Task Using known records, supply % Blockade 50 µM for C[C@@H]1C(=O)N(C[C@@H](Cc2ccccc2)NC(=O)OCc2ccccc2)[C@]1(Cc1ccccc1)C(=O)OCc1ccccc1 [Compound 29a]
## Result 100.0

## Task Using known records, supply % Blockade 50 µM for O=C(OCc1ccccc1)C(Cc1ccccc1)N1C[C@H](Cc2ccccc2)N(C(=O)OCc2ccccc2)CC1=O (stereo partly shown) [Compound 21ab]
## Result 92.5
